Numbers sourced from patent US10760110B2.

tested on: K. pneumoniae NVT1001 strains with ESBL or AmpC β-lactamase plasmids; test: Etest MIC of β-lactams, OmpK35/36 loss, ΔramR and/or extended-spectrum β-lactamase and AmpC β-lactamase (Table 8); format: cell-based, Klebsiella pneumoniae; conditions: Klebsiella pneumoniae, DHA-1-AmpR on pACYC177; ΔramRΔ36 (ΔramRΔompK36 mutant)
Result Type: MIC (µg/mL)

[[record]]
molecule = "CO[C@@]1(NC(=O)Cc2cccs2)C(=O)N2C(C(=O)O)=C(COC(N)=O)CS[C@@H]21 [Cefoxitin]"
result_type = "MIC"
units_text = "µg/mL"
value_relation_sign = ">"
recorded_value = 256

[[record]]
molecule = "CO/N=C(\\C(=O)N[C@@H]1C(=O)N2C(C(=O)O)=C(COC(N)=O)CS[C@H]12)c1ccco1 [Cefuroxime]"
result_type = "MIC"
units_text = "µg/mL"
value_relation_sign = ">"
recorded_value = 256

[[record]]
molecule = "CC(=O)OCC1=C(C(=O)O)N2C(=O)[C@@H](NC(=O)Cc3cccs3)[C@H]2SC1 [Cephalothin]"
result_type = "MIC"
units_text = "µg/mL"
value_relation_sign = ">"
recorded_value = 256

[[record]]
molecule = "C[C@@H](O)[C@H]1C(=O)N2C(C(=O)O)=C(S[C@@H]3CN[C@H](C(=O)Nc4cccc(C(=O)O)c4)C3)[C@H](C)[C@H]12 [Ertapenem]"
result_type = "MIC"
units_text = "µg/mL"
value_relation_sign = ">"
recorded_value = 32

[[record]]
molecule = "C[C@@H](O)[C@H]1C(=O)N2C(C(=O)O)=C(SCCN=CN)C[C@H]12 [Imipenem]"
result_type = "MIC"
units_text = "µg/mL"
value_relation_sign = "="
recorded_value = 16

[[record]]
molecule = "C[C@@H](O)[C@H]1C(=O)N2C(C(=O)O)=C(S[C@@H]3CN[C@H](C(=O)N(C)C)C3)[C@H](C)[C@H]12 [Meropenem]"
result_type = "MIC"
units_text = "µg/mL"
value_relation_sign = "="
recorded_value = 8

[[record]]
molecule = "C[C@@H](O)[C@H]1C(=O)N2C(C(=O)O)=C(S[C@@H]3CN[C@H](CNS(N)(=O)=O)C3)[C@H](C)[C@H]12 [Doripenem]"
result_type = "MIC"
units_text = "µg/mL"
value_relation_sign = "="
recorded_value = 4

